- target.or.test.system: EPHA2 (Homo sapiens, UniProt P29317)
- Sequence (P29317 24-976, species assumed): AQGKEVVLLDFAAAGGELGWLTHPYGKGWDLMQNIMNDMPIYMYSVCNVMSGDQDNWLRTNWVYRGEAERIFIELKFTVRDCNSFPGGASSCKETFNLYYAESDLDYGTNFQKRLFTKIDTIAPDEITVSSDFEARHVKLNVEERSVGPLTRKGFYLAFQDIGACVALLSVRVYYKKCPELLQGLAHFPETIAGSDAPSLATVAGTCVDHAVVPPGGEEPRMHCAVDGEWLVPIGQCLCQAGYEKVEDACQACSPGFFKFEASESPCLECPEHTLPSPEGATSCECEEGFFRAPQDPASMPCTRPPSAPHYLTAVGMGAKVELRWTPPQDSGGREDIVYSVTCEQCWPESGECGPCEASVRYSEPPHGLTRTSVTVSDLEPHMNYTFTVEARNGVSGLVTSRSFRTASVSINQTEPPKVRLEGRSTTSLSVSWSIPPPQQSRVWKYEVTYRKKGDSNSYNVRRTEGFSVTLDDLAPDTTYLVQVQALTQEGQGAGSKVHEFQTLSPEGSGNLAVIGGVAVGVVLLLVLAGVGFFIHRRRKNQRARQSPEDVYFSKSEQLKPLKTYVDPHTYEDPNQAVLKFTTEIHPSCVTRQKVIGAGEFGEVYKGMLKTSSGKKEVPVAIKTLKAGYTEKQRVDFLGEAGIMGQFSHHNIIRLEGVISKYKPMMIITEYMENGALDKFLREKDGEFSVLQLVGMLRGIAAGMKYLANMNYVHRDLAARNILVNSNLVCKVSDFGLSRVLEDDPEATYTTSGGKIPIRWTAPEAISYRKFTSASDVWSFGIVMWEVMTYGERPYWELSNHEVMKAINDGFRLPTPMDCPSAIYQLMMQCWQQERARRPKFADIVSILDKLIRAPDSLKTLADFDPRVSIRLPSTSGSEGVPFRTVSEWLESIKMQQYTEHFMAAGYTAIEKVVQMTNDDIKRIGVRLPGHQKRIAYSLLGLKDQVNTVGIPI
- experiment.notes: FRET-based coupled-enzyme protein kinase inhibition assay
- Assay type: biochemical
- test.parameters: compound at 10 µM, 1% DMSO
- Method: A biochemical assay was then performed in order to measure the protein kinase inhibition. It employed a fluorescence-based coupled-enzyme format and was based on the differential sensitivity of phosphorylated and non-phosphorylated peptides to proteolytic cleavage. […] A significant benefit of this ratiometric method for quantitating reaction progress is the elimination of well-to-well variations in FRET-peptide concentration and signal intensities. […]
So I've got a bunch of compounds here, and I need their inhibition at 10 µM values.
Just the number in %, nothing appended.

# inhibition at 10 µM of Nc1ncnc2c1ncn2[C@@H]1O[C@H](COC(=O)N2CCN(Cc3ccccc3)CC2CO)[C@@H](O)[C@H]1O (stereo partly drawn) = 3

According to the records, this compound `CC(C)N1CCC(NC(=O)OC[C@H]2O[C@@H](n3cnc4c(N)ncnc43)[C@H](O)[C@@H]2O)CC1` displays inhibition at 10 µM of 7

According to the records, this compound Nc1ncnc2c1ncn2[C@@H]1O[C@H](COC(=O)N2CCC(Cc3ccc(F)cc3)C2)[C@@H](O)[C@H]1O (stereo partly drawn) displays inhibition at 10 µM of 9

get_value(item= `N#CCCN1CCN(C(=O)OC[C@H]2O[C@@H](n3cnc4c(N)ncnc43)[C@H](O)[C@@H]2O)CC1` , readout=inhibition at 10 µM) returns 4

Noted for `Nc1ncnc2c1ncn2[C@@H]1O[C@H](COC(=O)NCCN2CCCC2=O)[C@@H](O)[C@H]1O` : its inhibition at 10 µM reads 1

inhibition at 10 µM measured on `Nc1ncnc2c1ncn2[C@@H]1O[C@H](COC(=O)N2CCN(CCc3ccccc3)CC2)[C@@H](O)[C@H]1O` = -1

// `Nc1ncnc2c1ncn2[C@@H]1O[C@H](COC(=O)N2CCS(=O)(=O)CC2)[C@@H](O)[C@H]1O` : inhibition at 10 µM value = 4

The value of inhibition at 10 µM measured for the compound `Nc1ncnc2c1ncn2[C@@H]1O[C@H](COC(=O)N2CCN(C(=O)N3CCOCC3)CC2)[C@@H](O)[C@H]1O` turned out to be 6

The recorded inhibition at 10 µM for `CN(C)CCNC(=O)OC[C@H]1O[C@@H](n2cnc3c(N)ncnc32)[C@H](O)[C@@H]1O` is 4
